target: NAD(+) hydrolase SARM1 (Homo sapiens); test: SARM1 TIR NADase inhibitors, cell lysate, NAD-Glo luminescence (AID 1508614); conditions: SAM-TIR HEK293T lysate NADase, at 1 µM, stronger effect = higher value;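 note: higher remaining NAD means stronger inhibition of SARM1 NADase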
Calls of active or inactive are those of the source.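 Rule for the calls: active = compound whose remaining NAD level is above about 45 nM (limit read from the data); inactive = the rest.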
Each entry below carries its recorded remaining NAD.

COMPOUND	remaining NAD
CC(C)(C)NC[C@H](O)COc1nsnc1N1CCOCC1	10 nM (inactive)
CN1C(C(=O)Nc2ccccn2)=C(O)c2ccccc2S1(=O)=O	10 nM (inactive)
CNCCCC12CCC(c3ccccc31)c1ccccc12	10 nM (inactive)
CNC(=O)Oc1ccc2c(c1)[C@]1(C)CCN(C)[C@@H]1N2C	10 nM (inactive)
CC1=C(C(=O)O)N2C(=O)[C@@H](NC(=O)[C@H](N)c3ccccc3)[C@H]2SC1	10 nM (inactive)
CCCCC1=NC2(CCCC2)C(=O)N1Cc1ccc(-c2ccccc2-c2nn[nH]n2)cc1	10 nM (inactive)
CC(=O)OCC(CCn1cnc2cnc(N)nc21)COC(C)=O	10 nM (inactive)
Nc1ncn([C@@H]2O[C@H](CO)[C@@H](O)[C@H]2O)c(=O)n1	10 nM (inactive)
CCCCNC(=O)NS(=O)(=O)c1ccc(C)cc1	10 nM (inactive)
C[C@]12C=CC(=O)C=C1CC[C@@H]1[C@@H]2C(=O)C[C@@]2(C)[C@H]1CC[C@]2(O)C(=O)CO	10 nM (inactive)
CCN(CC)CCNC(=O)c1ccc(N)cc1	10 nM (inactive)
CCC(C)(C)C(=O)O[C@H]1C[C@@H](C)C=C2C=C[C@H](C)[C@H](CC[C@@H]3C[C@@H](O)CC(=O)O3)[C@H]21	10 nM (inactive)
NNCCc1ccccc1	10 nM (inactive)
CC(C)Cc1ccc(C(C)C(=O)O)cc1 (stereo not drawn)	10 nM (inactive)
CC(C)C(=O)Nc1ccc([N+](=O)[O-])c(C(F)(F)F)c1	10 nM (inactive)
NNC(=O)c1ccncc1	10 nM (inactive)
CN(C)CCc1c[nH]c2ccc(C[C@H]3COC(=O)N3)cc12	10 nM (inactive)
CCOC(=O)C1=C(COCCN)NC(C)=C(C(=O)OC)C1c1ccccc1Cl (stereo not drawn)	10 nM (inactive)
OCCN(CCO)c1nc(N2CCCCC2)c2nc(N(CCO)CCO)nc(N3CCCCC3)c2n1	10 nM (inactive)
COc1ccc2c(c1)c(CC(=O)O)c(C)n2C(=O)c1ccc(Cl)cc1	10 nM (inactive)
CCCCNc1cc(C(=O)O)cc(S(N)(=O)=O)c1Oc1ccccc1	10 nM (inactive)
Cc1ccc(Cl)c(Nc2ccccc2C(=O)O)c1Cl	10 nM (inactive)
CCN(CC)CCOC(=O)c1ccc(N)cc1	10 nM (inactive)

* * *

biological target: Cellular tumor antigen p53 (Homo sapiens) (UniProt P04637); assay: kinase inhibitors altering GFP-p53 stability in HPV16-positive cells, imaging, known kinase inhibitor set, EGFP/DsRed ratio (AID 1053116); settings: stronger effect = higher value; measured here: GFP-p53 positive objects count;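 note: cells exposed to compounds for 24 h at 37 °C before reading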
Sequence (P04637 whole entry, looked up): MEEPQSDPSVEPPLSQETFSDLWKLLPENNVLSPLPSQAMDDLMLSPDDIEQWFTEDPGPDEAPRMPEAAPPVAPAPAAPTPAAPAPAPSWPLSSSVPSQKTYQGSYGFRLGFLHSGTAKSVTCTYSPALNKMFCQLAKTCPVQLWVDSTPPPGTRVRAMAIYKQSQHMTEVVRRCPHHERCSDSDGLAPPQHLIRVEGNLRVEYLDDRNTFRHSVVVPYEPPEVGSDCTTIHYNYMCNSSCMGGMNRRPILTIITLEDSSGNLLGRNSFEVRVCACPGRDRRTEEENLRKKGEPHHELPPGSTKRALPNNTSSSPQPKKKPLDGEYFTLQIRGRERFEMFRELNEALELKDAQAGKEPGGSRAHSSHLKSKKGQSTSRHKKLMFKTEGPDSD
Tag: 1 if measured EGFP object count is not below 30, -1 if it is.

COMPOUND	LABEL
Cn1cc(C2=C(c3c4n(c5ccccc35)CCCCC4)C(=O)NC2=O)c2ccccc21	-1
CC(c1ccccc1)C(C(=O)Nc1ccc(I)cc1F)N1C(=O)NC(c2ccc(OCC(O)CO)cc2)C1=O (stereo not given)	-1
Cn1cc(C2=C(c3cn(C)c4cc(Cl)ccc34)C(=O)NC2=O)c2ccccc21	1
Cn1cc(C2=C(c3cn(C)c4c(N)cccc34)C(=O)NC2=O)c2ccccc21	1
Nc1nccc(-c2c(-c3ccc(F)cc3)ncn2CCCN2CCOCC2)n1	-1
